TEST_TARGET: NDM-1 (Klebsiella pneumoniae, UniProt C7C422)
Sequence (C7C422 29-270, looked up, species assumed): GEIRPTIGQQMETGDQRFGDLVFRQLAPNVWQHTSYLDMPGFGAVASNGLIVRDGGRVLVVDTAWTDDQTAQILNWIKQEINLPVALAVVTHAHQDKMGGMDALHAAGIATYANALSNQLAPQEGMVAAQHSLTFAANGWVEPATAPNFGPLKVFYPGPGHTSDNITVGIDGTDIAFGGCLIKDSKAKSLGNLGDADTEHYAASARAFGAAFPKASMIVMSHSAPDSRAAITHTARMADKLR
ASSAY_INFO: Enzyme activity: determination of IC50, fluorescence assay with CCF2-FA substrate
Type: biochemical
RECORDED_CONDITIONS: NDM-1 enzyme 1 pM, CCF2-FA 1.25 μM, 2 hours at 25° C.; read-out: NDM1 IC50
PARAMETER_MEASURED: IC50 (nM)

- SMILES_NOTATION: "CCC[C@H](C(=O)O)[C@H](Cc1cnc(OC2CCNCC2)nc1)c1nnn[nH]1"
  REPORTED_MEASUREMENT: 3100
- SMILES_NOTATION: "CCC[C@H](C(=O)O)[C@H](Cc1cccc(-c2cnc(N)c(F)c2)c1)c1nn[nH]n1"
  REPORTED_MEASUREMENT: 6.2
- SMILES_NOTATION: "CCC[C@H](C(=O)O)[C@H](Cc1cccc(-c2cncc(CN3CCCCC3)c2)c1)c1nn[nH]n1"
  REPORTED_MEASUREMENT: 160
- SMILES_NOTATION: "CCC[C@H](C(=O)O)[C@H](Cc1cccc(-c2ccc(NS(C)(=O)=O)cc2)c1)c1nn[nH]n1"
  REPORTED_MEASUREMENT: 11
